target: Human C3 (human, UniProt P01024 23-1663); test: cell-based or functional assay
Sequence (P01024 23-1663 limits assumed): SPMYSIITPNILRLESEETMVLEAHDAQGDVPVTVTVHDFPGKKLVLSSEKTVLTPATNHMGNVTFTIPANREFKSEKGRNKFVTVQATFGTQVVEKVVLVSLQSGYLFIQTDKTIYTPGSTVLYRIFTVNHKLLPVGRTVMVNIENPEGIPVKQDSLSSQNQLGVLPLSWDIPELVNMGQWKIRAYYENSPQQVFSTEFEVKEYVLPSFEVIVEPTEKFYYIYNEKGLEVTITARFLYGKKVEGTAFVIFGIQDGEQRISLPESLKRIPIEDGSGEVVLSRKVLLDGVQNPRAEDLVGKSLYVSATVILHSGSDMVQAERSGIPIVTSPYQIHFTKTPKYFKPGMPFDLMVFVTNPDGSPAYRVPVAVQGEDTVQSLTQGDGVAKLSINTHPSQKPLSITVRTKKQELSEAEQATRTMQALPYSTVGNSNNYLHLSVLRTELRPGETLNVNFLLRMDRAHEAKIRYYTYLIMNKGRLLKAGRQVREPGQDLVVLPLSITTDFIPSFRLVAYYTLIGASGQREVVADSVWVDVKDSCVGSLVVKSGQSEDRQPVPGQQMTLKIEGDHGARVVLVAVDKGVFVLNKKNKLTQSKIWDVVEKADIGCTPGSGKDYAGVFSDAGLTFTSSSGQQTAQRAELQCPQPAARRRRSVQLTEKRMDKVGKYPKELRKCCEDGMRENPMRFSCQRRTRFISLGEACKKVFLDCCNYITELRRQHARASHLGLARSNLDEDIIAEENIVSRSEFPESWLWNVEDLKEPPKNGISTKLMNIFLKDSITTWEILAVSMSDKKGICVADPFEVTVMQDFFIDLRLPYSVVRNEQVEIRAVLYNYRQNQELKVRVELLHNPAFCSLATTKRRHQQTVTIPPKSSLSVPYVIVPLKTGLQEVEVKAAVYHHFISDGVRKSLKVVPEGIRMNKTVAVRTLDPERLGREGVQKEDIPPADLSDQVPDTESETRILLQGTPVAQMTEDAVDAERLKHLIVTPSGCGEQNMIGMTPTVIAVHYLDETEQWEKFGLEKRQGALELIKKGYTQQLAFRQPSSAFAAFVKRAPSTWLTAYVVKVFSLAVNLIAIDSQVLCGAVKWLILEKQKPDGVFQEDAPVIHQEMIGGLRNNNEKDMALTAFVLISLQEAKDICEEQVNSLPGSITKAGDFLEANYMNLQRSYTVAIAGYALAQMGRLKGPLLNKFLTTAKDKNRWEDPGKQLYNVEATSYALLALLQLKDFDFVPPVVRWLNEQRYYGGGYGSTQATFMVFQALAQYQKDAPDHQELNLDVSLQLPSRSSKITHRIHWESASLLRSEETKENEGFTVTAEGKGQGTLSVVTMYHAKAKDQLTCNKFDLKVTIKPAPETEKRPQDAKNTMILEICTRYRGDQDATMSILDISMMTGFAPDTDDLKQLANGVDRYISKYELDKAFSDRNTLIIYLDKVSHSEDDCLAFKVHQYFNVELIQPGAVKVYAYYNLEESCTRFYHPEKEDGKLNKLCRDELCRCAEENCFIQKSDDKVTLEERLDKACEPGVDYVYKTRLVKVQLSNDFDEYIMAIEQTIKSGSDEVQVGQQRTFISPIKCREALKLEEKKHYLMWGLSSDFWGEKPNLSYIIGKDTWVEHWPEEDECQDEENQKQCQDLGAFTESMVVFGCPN
Positions of bridges follow the written chain, without caps; N, C: chain ends. Non-standard residues stand in square brackets, D forms with d. 1Nal = N[C@@H](Cc1cccc2ccccc12)C(=O)O
Endpoint: IC50[nM], inhibition of hemolysis

# Binder, Experimental Result
records = [
    ("Ac-YCIWQDWGEHRCT-NH2 (disulfide 2-12; SMILES CC[C@H](C)[C@@H]1NC(=O)[C@@H](NC(=O)[C@H](Cc2ccc(O)cc2)NC(C)=O)CSSC[C@@H](C(=O)N[C@H](C(N)=O)[C@@H](C)O)NC(=O)[C@H](CCCNC(=N)N)NC(=O)[C@H](Cc2c[nH]cn2)NC(=O)[C@H](CCC(=O)O)NC(=O)CNC(=O)[C@H](Cc2c[nH]c3ccccc23)NC(=O)[C@H](CC(=O)O)NC(=O)[C@H](CCC(N)=O)NC(=O)[C@H](Cc2c[nH]c3ccccc23)NC1=O) [Compound 9]", "< 100 nM"),
    ("Ac-FCI[1Nal]QDWGEHRCTGAES-NH2 (disulfide 2-12; SMILES CC[C@H](C)[C@@H]1NC(=O)[C@@H](NC(=O)[C@H](Cc2ccccc2)NC(C)=O)CSSC[C@@H](C(=O)N[C@H](C(=O)NCC(=O)N[C@@H](C)C(=O)N[C@@H](CCC(=O)O)C(=O)N[C@@H](CO)C(N)=O)[C@@H](C)O)NC(=O)[C@H](CCCNC(=N)N)NC(=O)[C@H](Cc2c[nH]cn2)NC(=O)[C@H](CCC(=O)O)NC(=O)CNC(=O)[C@H](Cc2c[nH]c3ccccc23)NC(=O)[C@H](CC(=O)O)NC(=O)[C@H](CCC(N)=O)NC(=O)[C@H](Cc2cccc3ccccc23)NC1=O) [Compound 63]", "< 100 nM"),
]
